- Test system: NCI-H1299
- assay.procedure: Antiproliferative activity against human NCI-H1299 cells after 72 hrs by CCK8 assay
- Format: functional, cell-based
- measurement.conditions: NCI-H1299, 72 h
parameter: pIC50
The value called pIC50 is obtained by taking minus log10 of the concentration in mol/L.

Would you please look over these solved cases?
compound	endpoint.value
CCOc1cc(C(C)(C)C)ccc1C1=NC(c2ccc(Cl)cc2)C(c2ccc(Cl)cc2)N1C(=O)NCCCCC(=O)Nc1ccccc1N (centres undefined)	4.81
CCOc1cc(C(C)(C)C)ccc1C1=NC(c2ccc(Cl)cc2)C(c2ccc(Cl)cc2)N1C(=O)N1CCN(CCCCCCC(=O)NO)CC1 (centres undefined)	5.38
CCOc1cc(C(C)(C)C)ccc1C1=NC(c2ccc(Cl)cc2)C(c2ccc(Cl)cc2)N1C(=O)N1CCC(C(=O)NO)CC1 (centres undefined)	5.01

Given the entry CCOc1cc(C(C)(C)C)ccc1C1=NC(c2ccc(Cl)cc2)C(c2ccc(Cl)cc2)N1C(=O)NCc1ccc(C(=O)NO)cc1 (centres undefined) , report its measured pIC50.
5.11
